- Test system: CAL-62 (Thyroid Gland Carcinoma);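 further: after 72 h of two-drug dosing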
- Experiment description: Bliss excess, mean over the matrix (fraction); higher = more synergy
A collection of molecules and their measured Bliss excess
Respond using a number only.

Molecule	Bliss excess
CN(CCO)CC[C@H](CSc1ccccc1)Nc1ccc(S(=O)(=O)NC(=O)c2ccc(N3CCC([C@@H](O)c4ccccc4-c4ccc(Cl)cc4)CC3)cc2)cc1S(=O)(=O)C(F)(F)F [AZD4320] + C[C@@H]1COCCN1C2=NC(=NC(=C2)C3(CC3)[S@](=N)(=O)C)C4=C5C=CNC5=NC=C4 [AZD6738] (first compound max 1 µM, 7x7, partner max 10 µM)	0.0112
CN(CCO)CC[C@H](CSc1ccccc1)Nc1ccc(S(=O)(=O)NC(=O)c2ccc(N3CCC([C@@H](O)c4ccccc4-c4ccc(Cl)cc4)CC3)cc2)cc1S(=O)(=O)C(F)(F)F [AZD4320] + C[C@@H](Nc1cc(F)cc(F)c1)c1cc(C(=O)N(C)C)cc2c(=O)cc(N3CCOCC3)oc12 [AZD8186] (first compound max 1 µM, 7x7, partner max 3 µM)	0.046

Now examine the next entry.
So what's the measured Bliss excess for this one? CC1(C)CCC(CN2CCN(c3ccc(C(=O)NS(=O)(=O)c4ccc(NCC5CCOCC5)c([N+](=O)[O-])c4)c(Oc4cnc5[nH]ccc5c4)c3)CC2)=C(c2ccc(Cl)cc2)C1 [Venetoclax] + CN(C)CCCOc1ccc(-c2ccc3ncc4c(c3c2)n(C2CCOCC2)c(=O)n4C)cn1 [AZD0156] (first compound max 1 µM, 7x7, partner max 1 µM)
0.0063
